meta.source: the supplement of paper PMC10065799

test system: c-Src SH2;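 also: peptide library displayed on the E. coli surface as eCPX fusions, selected cells deep-sequenced, score is each peptide's frequency after selection divided by its frequency in the input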
protocol text: SH2 binding enrichment of the phosphorylated peptide, bacterial display (enrichment ratio); higher = better substrate or ligand; peptides without Tyr show the background
quantity name: SH2 binding enrichment

// below: answered sequences
Output measured SH2 binding enrichment for this item: SYCYRYRCAAW [SUMF1_Y344_R349W] 1.67

Output measured SH2 binding enrichment for this item: CTTIHHNFMCN [TP53_Y234_Y234H_YF] 1.36

Give measured SH2 binding enrichment for every item shown.
1. FDGKDYIALKE [HLA-A_Y147_N151K_YF]
2. IHTDAYVRAMT [RPE65_Y89_R85H]
3. EPGSLYGCGGG [ATM_Y2019_D2016G]
4. FAGRDYSLDEF [MYOF_Y1705_G1701A_YF]
5. SFSGEYGGGGG [ZG16_Y30_YF]
6. GVFSRHFTTFD [CLCA1_Y661_Y661H_YF]

1: 0.499; 2: 0.451; 3: 0.589; 4: 0.69; 5: 0.471; 6: 1.78

Give measured SH2 binding enrichment for every item shown.
1. VTAALYGRLYE [BTD_Y536]
2. PKAWNYELPAT [PROM1_Y34]
3. RFLRGYRQDAY [HLA-A_Y137]
4. RVQKRYILDNV [RCN1_Y115_F117L]
5. REGAKYVSHDA [ASS1_Y113_G117D]
6. DTFDPYLDIAL [USP36_Y268_V271I_YF]

1.12
0.851
0.628
0.454
0.389
0.487

Give measured SH2 binding enrichment for every item shown.
1. VRVQLYDPDFM [CYP4A22_Y100_Y104F]
2. QEGPEYWDQET [HLA-A_Y83]
3. GRPLSYWLTGC [LYZL6_Y140_F139S]

1. 0.536
2. 0.588
3. 0.464

Give measured SH2 binding enrichment for every item shown.
1. EPTPGYEVSQR [TSC2_Y1788_G1791S]
2. YGSGNYNVFGN [HNRNPA2B1_Y300_D302V]
3. TISPYYCQSLF [CRYAA_Y48_R49C]
4. KDHLDYKYQPR [SOX9_Y172_P170L]
5. ALTRSYIREKV [CYP2C8_Y243]
6. MCDKEYYSVHN [MET_Y1234_Y1230C]

1: 0.56; 2: 0.682; 3: 2.21; 4: 0.697; 5: 0.433; 6: 1.16

Give measured SH2 binding enrichment for every item shown.
1. ATARPYSPYII [LRP5_Y1528_R1529S]
2. NACGLYFKLHN [GATA2_Y376_YF]
3. LSRDVYEEDSY [RET_Y900]
4. VKPHRYRPGTV [H3-5_Y41]
5. PLLLSYYLIKW [NUP160_Y773]
6. KALKQYRAGPS [DDX27_Y763]
7. MAFDRYAAICS [OR8H2_Y123_H120Y_YF]

[0.619, 0.449, 0.978, 0.486, 0.966, 0.438, 1.93]

Give measured SH2 binding enrichment for every item shown.
1. FASTGYGIAIQ [GRIN2B_Y762]
2. QYKDKYLAKHN [CASK_Y712]
3. DLDLTYIYPNI [PTEN_Y27]
4. KYLENYLNRLL [PLD2_Y169]
5. AFPVSYSSSSA [RET_Y687_G691S]
6. VKGGAYNPVTV [MCCC2_Y145_Y146N]
7. VNKIFYPDFIV [LIG3_Y768_YF]

1: 0.452; 2: 1.02; 3: 3.33; 4: 1.27; 5: 0.524; 6: 0.466; 7: 0.498

Give measured SH2 binding enrichment for every item shown.
1. IGSHAYGDQYR [IDH1_Y135_R132S]
2. FGRTFYNQANM [MCCC2_Y196_I200N]
3. PGLSSYGVPAS [FLNB_Y1530]
4. IKNPQYFSDAC [NTRK1_Y496_E492K]
5. NCLRVYVAGRF [CRB1_Y711_E710V]
6. INQGPYENHSV [ATP6V1B1_Y462_R465H]
7. HKLSFYEFDFE [BTK_Y40_YF]
8. GVRFTYTIDGS [DCX_Y105_I104T_YF]

[0.433, 0.497, 0.545, 0.524, 0.678, 2.07, 3.27, 0.475]

Give measured SH2 binding enrichment for every item shown.
1. CSSGGYEPRGR [FUS_Y239_R234C]
2. KSVVTYSPTTG [ITGB3BP_Y32_I30V]
3. RRNEEYCLLAS [ITK_Y198_D202A]
4. GSRGKCSSGFR [ATM_Y332_Y332C]
5. FDAHIYEGCVI [PRKCD_Y64_R67C]

[0.472, 0.397, 0.627, 0.915, 0.5]
